biological target: soluble guanylate cyclase (Homo sapiens); test: CHO cellular assay (cGMP production, Cisbio cGMP HTRF); settings: CHO K1 cells overexpressing human GUCYA3/GUCYB3 (clone 8E10), 1 mM IBMX, 20 uM ODQ, 1 h room temperature, listed 0.5 nM means actual EC50 ≤0.5 nM (quantification limit)
Sequence (Q02108 whole entry partner): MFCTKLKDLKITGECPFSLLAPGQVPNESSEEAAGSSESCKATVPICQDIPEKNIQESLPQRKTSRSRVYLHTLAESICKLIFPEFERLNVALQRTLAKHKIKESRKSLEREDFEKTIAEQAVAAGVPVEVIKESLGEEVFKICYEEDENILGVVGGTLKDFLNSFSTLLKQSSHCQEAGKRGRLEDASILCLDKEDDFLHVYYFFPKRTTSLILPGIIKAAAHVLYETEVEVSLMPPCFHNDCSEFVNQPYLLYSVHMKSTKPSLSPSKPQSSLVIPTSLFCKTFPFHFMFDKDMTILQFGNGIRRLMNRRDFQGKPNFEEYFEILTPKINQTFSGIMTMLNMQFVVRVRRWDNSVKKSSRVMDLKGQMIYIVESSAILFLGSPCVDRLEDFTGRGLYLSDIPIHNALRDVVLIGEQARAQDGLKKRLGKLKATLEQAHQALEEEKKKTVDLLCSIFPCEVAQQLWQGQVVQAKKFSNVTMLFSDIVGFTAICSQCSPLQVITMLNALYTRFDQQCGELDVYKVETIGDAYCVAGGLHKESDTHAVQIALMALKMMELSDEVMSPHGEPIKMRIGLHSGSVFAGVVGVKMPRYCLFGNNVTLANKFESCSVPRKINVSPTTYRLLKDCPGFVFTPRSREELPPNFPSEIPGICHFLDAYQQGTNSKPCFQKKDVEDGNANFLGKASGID
Sequence (Q02153 whole entry): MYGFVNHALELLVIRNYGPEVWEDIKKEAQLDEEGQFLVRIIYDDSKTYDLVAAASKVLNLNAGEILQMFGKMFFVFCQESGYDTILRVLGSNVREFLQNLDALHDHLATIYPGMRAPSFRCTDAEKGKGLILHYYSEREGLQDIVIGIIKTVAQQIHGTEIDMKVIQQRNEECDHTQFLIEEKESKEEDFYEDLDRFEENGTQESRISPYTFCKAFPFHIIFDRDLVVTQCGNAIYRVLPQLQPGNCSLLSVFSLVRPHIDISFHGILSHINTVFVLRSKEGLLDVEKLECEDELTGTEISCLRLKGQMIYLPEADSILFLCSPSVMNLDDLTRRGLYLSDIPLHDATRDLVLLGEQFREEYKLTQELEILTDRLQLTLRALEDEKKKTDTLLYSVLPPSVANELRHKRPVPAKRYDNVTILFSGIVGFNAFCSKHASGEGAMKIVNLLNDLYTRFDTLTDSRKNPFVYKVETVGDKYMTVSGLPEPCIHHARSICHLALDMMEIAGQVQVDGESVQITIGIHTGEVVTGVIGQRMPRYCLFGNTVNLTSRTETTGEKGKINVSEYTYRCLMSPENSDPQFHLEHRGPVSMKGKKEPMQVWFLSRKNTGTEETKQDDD
Please respond with reported pEC50 for every item in the list.
Numbers only, as −log10 of the molar value.

Reported pEC50, compound CCc1cc(OCC2=C(c3cccc(-n4ncc(C(=O)O)c4C(F)(F)F)n3)CCCC2)ccc1C1CCN(C(=O)C2CC2)CC1 : ____
9.00

Reported pEC50, compound Cc1cc(C2CCN(C(=O)C3CC3)CC2)ccc1NCC1=C(c2cccc(-n3ncc(C(=O)O)c3C(F)(F)F)n2)CCCC1 : ____
8.62

Reported pEC50, compound Cc1cc(C2CCN(CC(F)(F)F)CC2)ccc1OCC1=C(c2cccc(-n3ncc(C(=O)O)c3C(F)(F)F)n2)CCCC1 : ____
8.55

Batch lookup, pEC50 per entry.
1. COC(=O)N1CCC(c2ccc(OCC3=C(c4cccc(-n5ncc(C(=O)O)c5C(F)(F)F)n4)CCCC3)c(C)c2)CC1
2. O=C(O)c1cnn(-c2cccc(C3=C(CNc4ccc(C5CCN(C(=O)C6CC6)CC5)cc4)CCCC3)n2)c1C(F)(F)F

[9.00, 8.30]
